meta.source: patent US20230382979A1

# Target of assay: SARS-CoV-2 spike protein, B1.351 (beta variant), borne on lentiviral pseudovirus (SARS-CoV-2, B1.351)
# Run description: cell-based or functional assay
Measured metric: Pseudo Neut, B1.351 IC50 (pM)

Respond only with Pseudo Neut, B1.351 IC50 (pM) recorded for antibody 980 (antibody, V domains shown) VH: QVQLVESGGGVVQPGRSLRLSCAASGFTFSRYGMHWVRQAPGKGLEWVALISSGGSNKYYADSVKGRFTISRDNSKNTLYLEMNSLRAEDTAVYYCAKDAIYDYIWGAYRENWFDPWGQGTLVTVSS VL: DIQMTQSPSSLSASVGDRVTITCRASQSISNYLNWYQQKPGKAPNLLIYAASSLQSGVPSRFSGSGSGTDFTLTISSLQPEDFATYYCQQTSSPPLTFGQGTKVEIK
1740 pM

Respond only with Pseudo Neut, B1.351 IC50 (pM) recorded for antibody 2729 (antibody, V domains shown) VH: QVTLKESGPVLVKPTETLTLTCTVSGFSLSNARMGVSWIRQPPGKALEWLAHIFSNDEKSYSTYLKSRLTISKDSSKSQVVLTMTIMDPVDTATYYCARTAGRYSSRWGHYYYYMDVWGKGTTVTVSS VL: NFMLTQPHSVSESPGKTVTISCTGSNGSIASNFMQWYQQRPGSAPTIVIYEDNQRPSGVPDRFSGSIDGSSNSASLTISGLKTEDEADYYCQSYDSSDSDLGVFGGGTKLTVL
793 pM
